- system.name: T1, monkey CD22 protein (ACROBiosystems, catalog number SI2-R52Ha) (monkey, UniProt F6W485 20-688)
- T1 construct: commercial protein; also called monkey CD22-ECD; monkey CD22-ECD-His
- T1 sequence: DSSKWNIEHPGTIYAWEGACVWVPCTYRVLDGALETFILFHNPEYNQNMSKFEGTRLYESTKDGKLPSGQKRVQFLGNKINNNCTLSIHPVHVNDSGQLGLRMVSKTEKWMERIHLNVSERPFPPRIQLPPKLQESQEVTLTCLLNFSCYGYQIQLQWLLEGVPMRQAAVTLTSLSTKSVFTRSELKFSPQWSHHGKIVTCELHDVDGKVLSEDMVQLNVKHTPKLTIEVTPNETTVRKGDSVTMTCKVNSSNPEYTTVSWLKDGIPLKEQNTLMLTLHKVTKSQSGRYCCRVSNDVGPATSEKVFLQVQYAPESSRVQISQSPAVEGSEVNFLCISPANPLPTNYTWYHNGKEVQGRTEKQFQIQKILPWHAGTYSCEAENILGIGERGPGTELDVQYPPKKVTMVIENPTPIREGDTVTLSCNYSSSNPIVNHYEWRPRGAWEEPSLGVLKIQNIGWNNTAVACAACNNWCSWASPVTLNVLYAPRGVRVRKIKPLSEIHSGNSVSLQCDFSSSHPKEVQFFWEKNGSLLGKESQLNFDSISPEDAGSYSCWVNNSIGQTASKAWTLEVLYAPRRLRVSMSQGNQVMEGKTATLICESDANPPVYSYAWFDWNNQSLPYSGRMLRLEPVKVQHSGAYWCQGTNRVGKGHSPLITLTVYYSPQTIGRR
- assay.comment: ELISA, coated monkey CD22 protein, antibody 0.001 nM
Cut-off 0.07 OD450 on OD450: below means rule met, at or above means rule not met.

binder: F2.99.1 (antibody, human IgG1, lambda, V domains shown, human-murine chimeric IgG1 lambda; VL name legible) VH: QVTLKESGPGILQPSQTLSLTCSFSGFSLSTFPMGVGWIRQPSGKGLEWLAHIWWDDDEYYNPVLKSRLTISKDTSKKQVYLRIANVDTVDTATYYCTRANWDRWYFDVWGTGTTVTVSS VL: QLVLTQSSSASFSLGASAKLTCTLSRQHSAYTIEWYQQQPLKPPKYVMEVKKDGSHSTGDGIPDRFSGSSSGADRYLSISNIQPEDEAIYICGVGDTIKEHFVFGGGTKVTVLG
assigned.label: rule met
--
binder: F2.151.13 (antibody, human IgG1, lambda, V domains shown, human-murine chimeric IgG1 lambda) VH: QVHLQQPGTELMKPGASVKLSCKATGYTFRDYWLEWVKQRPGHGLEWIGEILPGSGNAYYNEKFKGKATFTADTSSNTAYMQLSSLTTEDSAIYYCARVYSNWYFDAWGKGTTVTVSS VL: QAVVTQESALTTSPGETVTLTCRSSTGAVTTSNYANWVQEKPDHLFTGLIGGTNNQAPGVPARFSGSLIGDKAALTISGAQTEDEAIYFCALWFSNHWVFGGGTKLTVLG
assigned.label: rule not met
--
binder: F2.121.9 (antibody, human IgG1, lambda, V domains shown, human-murine chimeric IgG1 lambda) VH: EVQLVESGGGLVKPGGSLKLSCAASGFTFSDYVMSWIRQTPEKRLEWVATISDAGSYTFYPDNLKGRFTISRDNAKNNLYLQMNHLTSEDTAFYYCAIIYFGNYGGYWGQGTLVTVSV VL: QAVVTQESALTTSPGGTVVLTCRSNTGAVTTSNYANWVQEKPDHLFTGLIGGTSNRAPGVPVRFSGSLIGDKAALTITGAQTEDDAMYFCALWYSTHWVFGGGTKLTVLG
assigned.label: rule met
--
binder: F1.60.9 (antibody, human IgG1, kappa, V domains shown, human-murine chimeric IgG1 kappa) VH: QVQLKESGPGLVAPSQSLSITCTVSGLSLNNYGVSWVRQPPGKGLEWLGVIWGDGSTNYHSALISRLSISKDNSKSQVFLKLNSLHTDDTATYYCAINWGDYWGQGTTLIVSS VL: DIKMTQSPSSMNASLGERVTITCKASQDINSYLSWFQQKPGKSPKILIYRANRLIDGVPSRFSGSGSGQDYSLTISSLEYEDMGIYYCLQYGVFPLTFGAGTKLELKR
assigned.label: rule met
--
binder: F1.17.1 (antibody, human IgG1, kappa, V domains shown, human-murine chimeric IgG1 kappa) VH: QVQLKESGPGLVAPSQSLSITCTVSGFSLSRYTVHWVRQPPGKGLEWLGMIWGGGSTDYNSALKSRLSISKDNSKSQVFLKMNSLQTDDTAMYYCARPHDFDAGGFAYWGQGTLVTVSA VL: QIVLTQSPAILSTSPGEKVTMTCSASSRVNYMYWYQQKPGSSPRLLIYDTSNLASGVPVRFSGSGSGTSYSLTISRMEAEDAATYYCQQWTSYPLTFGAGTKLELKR
assigned.label: rule not met
--
binder: F2.343.16 (antibody, human IgG1, lambda, V domains shown, human-murine chimeric IgG1 lambda; VL name legible) VH: QVQLKQSGPGLVQPSQSLSITCTVSGFSLTGYGVQWVRQSPGKGLEWLGVIWGGGGTDYNAAFISRLNIIKDNSKSQVFFKMNSLQADDTAIYYCARYSKYGHFDVWGTGTAVTVSS VL: QAVVTQESALTTSPGETVTLTCRSSTGAVTTSNYANWVQEKPDHLFTGLIGGTYNRVPGVPARFSGSLIGDKAALTITGAQTEDEAIYFCALWYSNHFWVFGGGTKLTVLG
assigned.label: rule met
--
binder: F1.105.11 (antibody, human IgG1, kappa, V domains shown, human-murine chimeric IgG1 kappa; VL name legible) VH: EVQLQQSGPVLVKPGASVKMSCKASGYTFSDYFMNWVKQSHGKSLEWIGIINSYSGGTSYNQKFKGKATLTVDKSSSTAYMELNSLTSEDSAVYYCARWMDYWGQGTSVTVSS VL: DVQITQSPSYLAASPGETITINCRTSESISKHLAWYQEKPGKTNKLLIYSGSTLQSGIPSRFSGSGSGTDFTLTISSLEPEDFAMYYCQQHNEYPWTFGGGTKLEIKR
assigned.label: rule not met
--
binder: F2.173.9 (antibody, human IgG1, lambda, V domains shown, human-murine chimeric IgG1 lambda) VH: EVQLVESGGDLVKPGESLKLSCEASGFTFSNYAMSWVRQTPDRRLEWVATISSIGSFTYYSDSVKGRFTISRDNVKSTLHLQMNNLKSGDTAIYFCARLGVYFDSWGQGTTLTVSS VL: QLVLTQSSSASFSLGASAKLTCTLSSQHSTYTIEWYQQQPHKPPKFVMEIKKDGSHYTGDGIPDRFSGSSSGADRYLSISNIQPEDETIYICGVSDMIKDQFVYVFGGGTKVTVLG
assigned.label: rule not met
--
binder: F1.7.6 (antibody, human IgG1, kappa, V domains shown, human-murine chimeric IgG1 kappa; VL name legible) VH: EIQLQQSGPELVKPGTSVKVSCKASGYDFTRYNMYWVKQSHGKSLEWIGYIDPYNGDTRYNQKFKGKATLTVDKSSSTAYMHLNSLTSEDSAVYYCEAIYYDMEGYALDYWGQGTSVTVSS VL: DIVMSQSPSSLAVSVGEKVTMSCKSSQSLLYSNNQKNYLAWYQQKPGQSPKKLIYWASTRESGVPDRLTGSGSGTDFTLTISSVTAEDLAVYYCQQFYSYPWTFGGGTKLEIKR
assigned.label: rule met
